RUN_DESCRIPTION: Activity ratio versus Probucol in lipid peroxidation
Assay type: functional

[
  {
    "STRUCTURE_AS_SMILES": "CCCCCCN(C(=O)c1cc2cc(O)ccc2[nH]1)c1ccccc1",
    "Ratio": 10
  },
  {
    "STRUCTURE_AS_SMILES": "Cn1c2c(c3cc(O)ccc31)CCCCCC2",
    "Ratio": 10
  },
  {
    "STRUCTURE_AS_SMILES": "CN(C(=O)c1cc2cc(O)ccc2n1C)c1ccccc1",
    "Ratio": 10
  },
  {
    "STRUCTURE_AS_SMILES": "Cn1c2c(c3cc(O)ccc31)CCCC2",
    "Ratio": 3
  },
  {
    "STRUCTURE_AS_SMILES": "COc1ccc2[nH]c(C(=O)Nc3ccccc3)cc2c1",
    "Ratio": 2.2
  },
  {
    "STRUCTURE_AS_SMILES": "CCCCN(C(=O)c1cc2cc(O)ccc2n1C)c1ccccc1",
    "Ratio": 3
  },
  {
    "STRUCTURE_AS_SMILES": "COc1cccc(N(C)C(=O)c2cc3cc(OC)ccc3n2C)c1",
    "Ratio": 0.01
  }
]

###

Species on record: Rattus norvegicus
RUN_DESCRIPTION: Inhibitory concentration against KCL-induced rat thoracic contraction
Format: functional

[
  {
    "STRUCTURE_AS_SMILES": "Cn1c(C(=O)N2CCN(C(c3ccc(F)cc3)c3ccc(F)cc3)CC2)cc2cc(O)ccc21",
    "IC50, µM": 1.5
  }
]

###

RUN_DESCRIPTION: Activity ratio versus Probucol in lipid peroxidation
Type: functional
Output Fulfilled for records whose Ratio is lower than 0.3, Not fulfilled for records at or above 0.3.

[
  {
    "STRUCTURE_AS_SMILES": "COc1ccc2[nH]c3c(c2c1)CCCC3",
    "LABEL": "Not fulfilled"
  },
  {
    "STRUCTURE_AS_SMILES": "Cn1c(C(=O)Nc2cccc(Cl)c2)cc2cc(O)ccc21",
    "LABEL": "Not fulfilled"
  },
  {
    "STRUCTURE_AS_SMILES": "CCSc1ccc2c(c1)c1c(n2C)CCCC1",
    "LABEL": "Fulfilled"
  },
  {
    "STRUCTURE_AS_SMILES": "CN(C(=O)c1cc2cc(O)ccc2[nH]1)c1ccccc1",
    "LABEL": "Not fulfilled"
  },
  {
    "STRUCTURE_AS_SMILES": "COc1ccc(CN2CCN(C(=O)c3cc4cc(O)ccc4[nH]3)CC2)c(OC)c1OC",
    "LABEL": "Not fulfilled"
  }
]

Provenance of the data: ChEMBL document CHEMBL1130341
